- studySystem: UniProtKB P9WHT9
- Sequence (P9WHT9 58-291): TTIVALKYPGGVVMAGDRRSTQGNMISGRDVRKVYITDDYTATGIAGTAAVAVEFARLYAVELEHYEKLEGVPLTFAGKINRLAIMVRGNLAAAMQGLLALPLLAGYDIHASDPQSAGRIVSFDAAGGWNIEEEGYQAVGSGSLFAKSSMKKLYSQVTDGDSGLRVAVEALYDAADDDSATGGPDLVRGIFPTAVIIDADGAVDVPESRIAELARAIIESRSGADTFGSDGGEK
- methodNotes: Kinetics of inhibition of Mtb20SOG, progress curves of Suc-LLVY-AMC cleavage
- Type: biochemical
- conditionSet: Ki, Morrison fit of vs/vo vs [1], corrected by (1+[S]/KM); one-step slow binding
testReadout: pKi
pKi here is simply -log10 of the concentration when that concentration is written in mol/L.

Notebook: CCCCCCCCC[C@@H](O)CC(=O)N[C@@H](CC(N)=O)C(=O)N[C@@H](CCC(N)=O)C(=O)N[C@H](C=O)CC(C)C [compound 1, (R)-3-hydroxydodecanoyl-Asn-Gln-Leu-CHO] , pKi read as 8.17
